// provenance: paper PMC6968640

- system under test: hBChE (Homo sapiens)
- Sequence (P06276 29-602): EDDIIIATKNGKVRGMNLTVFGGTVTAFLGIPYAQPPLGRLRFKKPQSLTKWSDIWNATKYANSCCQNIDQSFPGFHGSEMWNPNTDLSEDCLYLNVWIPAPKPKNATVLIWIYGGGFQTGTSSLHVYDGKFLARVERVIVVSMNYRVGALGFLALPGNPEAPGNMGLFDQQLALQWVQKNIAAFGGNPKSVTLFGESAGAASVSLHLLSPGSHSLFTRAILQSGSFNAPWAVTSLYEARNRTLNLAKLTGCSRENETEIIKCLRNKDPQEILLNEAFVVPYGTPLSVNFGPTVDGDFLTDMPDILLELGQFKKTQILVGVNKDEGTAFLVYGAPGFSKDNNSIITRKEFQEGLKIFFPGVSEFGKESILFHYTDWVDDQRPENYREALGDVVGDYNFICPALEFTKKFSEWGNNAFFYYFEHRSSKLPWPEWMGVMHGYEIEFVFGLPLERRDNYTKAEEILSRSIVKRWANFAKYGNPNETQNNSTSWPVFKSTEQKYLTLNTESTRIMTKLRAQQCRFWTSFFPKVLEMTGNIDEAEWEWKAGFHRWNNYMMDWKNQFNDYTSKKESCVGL
pIC50: −log10 of the molar value.
Label yes (1) for high-side pIC50 (at or above 7) and no (0) for low-side pIC50 (below it).

compound	system under test	category
[N-]=[N+]=NCCOCCN(CC1CCCN(Cc2ccccc2)C1)S(=O)(=O)c1ccc2ccccc2c1 (centres unmarked) [3C]	hBChE (Homo sapiens)	yes (1)
O=[N+]([O-])c1ccc(N2CCN(CCN(CC3CCCN(Cc4ccccc4)C3)S(=O)(=O)c3ccc4ccccc4c3)CC2)c2nonc12 (centres unmarked) [3B]	hBChE (Homo sapiens)	yes (1)
O=[N+]([O-])c1ccc(N2CCN(Cc3cn(CCOCCN(CC4CCCN(Cc5ccccc5)C4)S(=O)(=O)c4ccc5ccccc5c4)nn3)CC2)c2nonc12 (centres unmarked) [3D]	hBChE (Homo sapiens)	no (0)
CCN(CC)c1ccc2cc(C(=O)NCCOCCOCCN(CC3CCCN(Cc4ccccc4)C3)S(=O)(=O)c3ccc4ccccc4c3)c(=O)oc2c1 (centres unmarked) [3A]	hBChE (Homo sapiens)	yes (1)

----------
- system under test: purified huBChE (Homo sapiens, UniProt P06276)
- Construct: gift from Drs; O. Lockridge and L. Schopfer
- Sequence (P06276 29-602): as above
- procedure text: Kinetic studies: progress curves of BSCh hydrolysis by purified huBChE
- Format: biochemical
- condition details: 25 °C, 25 mM phosphate buffer pH 7.0, about 50 µM BSCh; read-out: K2, dissociation constant for binding to the acylated enzyme
pKi: −log10 of the molar value.
pKi by entry:
parameter measured: pKi

> print(dat)
                                   compound  parameter.measured  experimental.result
1  CCN(CC)c1ccc2cc(C(=O)NCCOCCOCCN(CC3CCCN(Cc4ccccc4)C3)S(=O)(=O)c3ccc4ccccc4c3)c(=O)oc2c1 (stereo not drawn) [3A]                 pKi                 6.53
2  CCN(CC)c1ccc2cc(-c3nc(CN4CCCC(CN(CCN(C)C)C(=O)c5ccc6ccccc6c5)C4)cs3)c(=O)oc2c1 (stereo not drawn) [2C]                 pKi                 7.37
3  O=[N+]([O-])c1ccc(N2CCN(CCN(CC3CCCN(Cc4ccccc4)C3)S(=O)(=O)c3ccc4ccccc4c3)CC2)c2nonc12 (stereo not drawn) [3B]                 pKi                 7.02

----------
- system under test: mAChE (Mus musculus, UniProt P21836)
- Sequence (P21836 32-614): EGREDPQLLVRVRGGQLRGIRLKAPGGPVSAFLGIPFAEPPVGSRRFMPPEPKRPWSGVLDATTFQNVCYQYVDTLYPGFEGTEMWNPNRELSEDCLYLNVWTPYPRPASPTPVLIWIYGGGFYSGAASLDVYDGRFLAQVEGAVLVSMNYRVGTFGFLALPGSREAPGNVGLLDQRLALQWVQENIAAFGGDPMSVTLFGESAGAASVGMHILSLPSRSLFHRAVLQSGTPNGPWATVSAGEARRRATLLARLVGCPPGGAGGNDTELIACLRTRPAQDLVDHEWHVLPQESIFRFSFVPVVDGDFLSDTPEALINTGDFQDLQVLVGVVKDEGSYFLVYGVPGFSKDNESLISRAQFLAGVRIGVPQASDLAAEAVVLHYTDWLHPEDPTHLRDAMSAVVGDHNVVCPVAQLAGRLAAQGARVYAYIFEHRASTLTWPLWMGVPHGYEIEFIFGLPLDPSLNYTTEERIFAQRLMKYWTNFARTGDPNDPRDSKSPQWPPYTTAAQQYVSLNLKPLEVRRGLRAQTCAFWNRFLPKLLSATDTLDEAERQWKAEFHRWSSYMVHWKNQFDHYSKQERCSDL
- procedure text: Inhibition of mAChE, method of Ellman
- Type: biochemical
- condition details: compound at 100 µM; read-out: mAChE residual activity (RA)
parameter measured: remaining activity at 100 µM (%)

> print(dat)
                                   compound            parameter.measured  experimental.result
1  CCN(CC)c1ccc2cc(C(=O)NCCOCCOCCN(CC3CCCN(Cc4ccccc4)C3)S(=O)(=O)c3ccc4ccccc4c3)c(=O)oc2c1 (stereo not drawn) [3A]  remaining activity at 100 µM                   93
2  [N-]=[N+]=NCCOCCN(CC1CCCN(Cc2ccccc2)C1)S(=O)(=O)c1ccc2ccccc2c1 (stereo not drawn) [3C]  remaining activity at 100 µM                   94
3  CCN(CC)c1ccc2cc(C(=O)N(CCOC)CC3CCCN(Cc4ccccc4)C3)c(=O)oc2c1 (stereo not drawn) [1A]  remaining activity at 100 µM                   92
